From: the Deep4Chem optical property database

# Assay remarks: solvent given as SMILES
# Test settings: in CC(C)=O
Measurement label: fluorescence lifetime (ns)
Provide only the numeric value, understood in ns.

Return the recorded fluorescence lifetime value; entry: `c1ccc(-c2ccc(-c3ccc(N(c4ccccc4)c4ccccc4)cc3)c3nsnc23)cc1`
3.58

Return the recorded fluorescence lifetime value; entry: `CCN1\C(=C/C=C/C=C/C2=[N+](CC)c3ccc4cc(Br)ccc4c3C2(C)C)C(C)(C)c2c1ccc1cc(Br)ccc21`
1.12

Return the recorded fluorescence lifetime value; entry: `Cc1ccc(C(=O)NN2C3=C(CC4=C2CCCC4=O)C(=O)CCC3)cc1`
5.1

Return the recorded fluorescence lifetime value; entry: `COc1ccc2c3c(cccc13)C(=O)c1ccccc1-2`
10.5
